Below, each of the compounds is paired with its reported growth value.
- Test system: BT-549 breast
- Test Protocol: NCI-60 one-dose screen, 48 h (100 = growth as untreated, 0 = no growth, -100 = all killed)
- Settings: 10 µM unless noted
The panel holds about 83,000 compounds, 20% with a hit somewhere; the sample as a whole holds those more often.
Give the value in % but do not write % after it.

Below: 4 compounds and their reported growth.
# Compound, Assay Metric, Val
data = [
    ("NC(=NCc1ccccc1)C(N=Nc1ccccc1)C(=O)NCc1ccccc1 (stereo not given)", "growth", 114),
    ("COc1ccc2[nH]c(O)c(/C=c3/cc4c(c(-c5ccc(F)cc5)n3)=Nc3ccccc3-4)c2c1", "growth", 98.9),
    ("CCc1ccc(CNc2ccc(N3CCOCC3)c(C(=O)O)c2)cc1", "growth", 105),
    ("COc1ccc(/C=C2\\Oc3cc(OCCCN4CCCCC4)ccc3C2=O)cc1OC", "growth", 83.9),
]

### Prompt Entry under review: O=C(Nc1cccc(C(=O)N2CCc3ccc(Cl)cc32)c1)c1ccco1 . Reported growth?
### Response 37.2

* * *

- System: OVCAR-4 ovarian
- Test Protocol: NCI-60 one-dose screen, 48 h
- Settings: 10 µM unless noted
The panel holds about 83,000 compounds, 20% with a hit somewhere; the sample as a whole holds those more often. The source made the active and inactive calls. The calls were made as follows: active = growth percent below 10; inactive = the rest.
Select the matching outcome among true (1) for active, false (0) for inactive

These recorded examples may help you get a feel for the data.
# Compound, Category
records = [
    ("CC1(C)CC[C@]2(C(=O)O)CC[C@]3(C)C(=CC[C@@H]4[C@@]5(C)Cc6c([nH]c7ccccc67)C(C)(C)[C@@H]5CC[C@]43C)[C@@H]2C1", "false (0)"),
    ("COc1cc(/C(C)=C(\\c2ccc(Cl)cc2)c2ccc(OCCN(C)C)cc2)ccc1F", "false (0)"),
    ("CCCOc1ccc(/C=N/Nc2cc(C)nc3ccc(Cl)cc23)cc1", "false (0)"),
]

Now examine the next entry.
### Prompt What is the recorded call for this compound in the test? OC(c1cccc(C(F)(F)F)c1)c1cnccc1NC1CCCCC1 (centres undefined)
### Response false (0)

* * *

- Tested on: SF-539 CNS
- Test Protocol: NCI-60 one-dose screen, 48 h
- Settings: 10 µM unless noted
The panel holds about 83,000 compounds, 20% with a hit somewhere; the sample as a whole holds those more often. Calls of active or inactive are those of the source. Rule for the calls: active = growth percent below 10; inactive = the rest.
Select the matching outcome among active, inactive

These recorded examples may help you get a feel for the data.
# Molecule, Category
records = [
    ("C[C@H]1[C@H](C)CC[C@]2(C(=O)NCC#CCN3CCN(C)CC3)CC[C@]3(C)C(=CC[C@@H]4[C@@]5(C)Cc6c([nH]c7ccccc67)C(C)(C)[C@@H]5CC[C@]43C)[C@H]12", "inactive"),
    ("CCOC(=O)c1nc2c3ccccc3ccn2c1C(=O)OCC", "inactive"),
    ("O=C1Nc2cc(-c3cccc([N+](=O)[O-])c3)ccc2/C1=C/c1ccc[nH]1", "inactive"),
    ("CC(Sc1nc2ccccc2c(=O)n1CCc1ccc(S(N)(=O)=O)cc1)C(=O)Nc1ccc(Cl)cc1 (stereo not drawn)", "inactive"),
    ("[O-][n+]1c(Cl)cc(Cl)c2ccccc21", "inactive"),
]

### Prompt What is the recorded call for this molecule in the test? O=C1c2ccc3c4c(ccc(c24)C(=O)N1CCCNCc1ccccc1F)C(=O)N(CCCNCc1ccccc1F)C3=O
### Response active

### Prompt What is the recorded call for this molecule in the test? COC1=CC(=O)c2ccccc2C1=O
### Response inactive

### Prompt What is the recorded call for this molecule in the test? C=C(C)[C@@H]1CC[C@]2(C(=O)N3CCN(C)CC3)CC[C@]3(C)[C@H](CC[C@@H]4[C@@]5(C)CC[C@H](O)C(C)(C)[C@@H]5CC[C@]43C)[C@@H]12
### Response active
